Listed below: Population Tubulin-Different-Phenotype (%) values for each entry.
tested on: HEK-293T; assay: Multiplex assay against HEK293T; type: toxicity, cell-based; details: human, 12 h, 10 µM, compound concentration 10 uM, replicate 2;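 also: share of the cells with healthy nuclei that show this phenotype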
Quantity Measured: Population Tubulin-Different-Phenotype (%)

>  <Molecule>
C=CC(=O)Nc1ccc2ncnc(Nc3ccc(OCc4cccc(F)c4)c(Cl)c3)c2c1.Cc1ccc(S(=O)(=O)O)cc1

>  <Tested System>
HEK-293T

>  <Result>
27%

$$$$
>  <Molecule>
CC(C)(O)CNc1ncc(-c2ccnc(Nc3ccnc(Cl)c3)n2)c(CC2CC2)n1

>  <Tested System>
HEK-293T

>  <Result>
42%

$$$$
>  <Molecule>
Cc1nc(Nc2n[nH]c3c2CN(C(=O)N[C@H](CN(C)C)c2ccccc2)C3(C)C)c2sccc2n1

>  <Tested System>
HEK-293T

>  <Result>
87%

$$$$
>  <Molecule>
Cc1c(-c2ccc(O)cc2)n(Cc2ccc(OCCN3CCCCCC3)cc2)c2ccc(O)cc12

>  <Tested System>
HEK-293T

>  <Result>
100%

$$$$
>  <Molecule>
CN(C)C(=O)/C(C#N)=C/c1ccc(-c2nc3cnc4[nH]ccc4c3n2C2CCCCC2)o1

>  <Tested System>
HEK-293T

>  <Result>
79%

$$$$
>  <Molecule>
C=CC(=O)Nc1cccc(C(=O)Nc2ccc(Nc3cc(-c4[nH]c(SC)nc4C)ccn3)cc2)c1

>  <Tested System>
HEK-293T

>  <Result>
82%

$$$$
>  <Molecule>
COc1cccc([C@@H](C)NCCCc2ccccc2Cl)c1.Cl [TECALCET HYDROCHLORIDE]

>  <Tested System>
HEK-293T

>  <Result>
95%

$$$$
>  <Molecule>
CN1CCC[C@@H]1CCO[C@](C)(c1ccccc1)c1ccc(Cl)cc1.O=C(O)/C=C/C(=O)O [CLEMASTINE FUMARATE]

>  <Tested System>
HEK-293T

>  <Result>
92%

$$$$
>  <Molecule>
Cc1cc(C)cc(-c2cnc3cc(Cl)c(-c4cccc(O)c4)cc3c2OCCCN)c1

>  <Tested System>
HEK-293T

>  <Result>
97%

$$$$
>  <Molecule>
CNc1nc(NCc2ccc(NS(C)(=O)=O)cc2Cl)cc(-c2ccccn2)n1

>  <Tested System>
HEK-293T

>  <Result>
73%

$$$$
>  <Molecule>
C[C@@H](NCCCc1cccc(C(F)(F)F)c1)c1cccc2ccccc12.Cl [CINACALCET HYDROCHLORIDE]

>  <Tested System>
HEK-293T

>  <Result>
90%

$$$$
>  <Molecule>
Cc1[nH]c(/C=C2\C(=O)Nc3ccc(S(=O)(=O)N(C)c4cccc(Cl)c4)cc32)c(C)c1C(=O)N1CCN(C)CC1

>  <Tested System>
HEK-293T

>  <Result>
93%

$$$$
>  <Molecule>
c1cn2cc(-c3ccc4cn[nH]c4c3)nc(Nc3ccc(N4CCOCC4)cc3)c2n1

>  <Tested System>
HEK-293T

>  <Result>
85%

$$$$
>  <Molecule>
Cc1sc2c(c1C)C(c1ccc(Cl)cc1)=N[C@@H](CC(=O)OC(C)(C)C)c1nnc(C)n1-2

>  <Tested System>
HEK-293T

>  <Result>
0%

$$$$
>  <Molecule>
COc1ncc(-c2ccc3nccc(-c4ccnnc4)c3c2)cc1NS(=O)(=O)c1ccc(F)cc1F

>  <Tested System>
HEK-293T

>  <Result>
26%

$$$$
>  <Molecule>
CN1CCN(CCOc2cc(OC3CCOCC3)c3c(Nc4c(Cl)ccc5c4OCO5)ncnc3c2)CC1

>  <Tested System>
HEK-293T

>  <Result>
100%

$$$$
>  <Molecule>
Cn1cc(-c2[nH]c3cc(NC(=O)[C@H](N)C4CCCCC4)cc4c3c2C=NNC4=O)cn1

>  <Tested System>
HEK-293T

>  <Result>
66%

$$$$
>  <Molecule>
CN(C)C(=O)N[C@H]1CC[C@H](CCN2CCN(c3cccc(Cl)c3Cl)CC2)CC1.Cl [CARIPRAZINE HYDROCHLORIDE]

>  <Tested System>
HEK-293T

>  <Result>
93%

$$$$
>  <Molecule>
Cl.N#Cc1ccc2[nH]cc(CCCCN3CCN(c4ccc5oc(C(N)=O)cc5c4)CC3)c2c1 [VILAZODONE HYDROCHLORIDE]

>  <Tested System>
HEK-293T

>  <Result>
96%

$$$$
>  <Molecule>
Cc1nc(-c2ccc(-c3ccc(C(=O)N4CCc5cc6c(cc54)C4(CCN(C)CC4)CO6)cc3)c(C)c2)no1

>  <Tested System>
HEK-293T

>  <Result>
85%

$$$$
>  <Molecule>
CN1CCCC(n2nc(Cc3ccc(Cl)cc3)c3ccccc3c2=O)CC1.Cl (centres undefined) [AZELASTINE HYDROCHLORIDE]

>  <Tested System>
HEK-293T

>  <Result>
56%

$$$$
>  <Molecule>
Cc1nc(-c2cn3c(n2)-c2ccc(-c4cnn(C(C)(C)C(N)=O)c4)cc2OCC3)n(C(C)C)n1

>  <Tested System>
HEK-293T

>  <Result>
10%

$$$$
>  <Molecule>
CC(C)NCC(O)COc1ccc(CCOCC2CC2)cc1.Cl (centres undefined) [BETAXOLOL HYDROCHLORIDE]

>  <Tested System>
HEK-293T

>  <Result>
77%

$$$$
>  <Molecule>
O=C(NCCCC1CCCCC1)c1ccc(CNC(=O)c2cnn(-c3ccccc3)c2C(F)(F)F)cc1

>  <Tested System>
HEK-293T

>  <Result>
32% [middle of 4 runs]

$$$$
>  <Molecule>
C=CC(=O)Nc1cc2c(Nc3ccc(F)c(Cl)c3)ncnc2cc1OCCCN1CCOCC1.Cl.Cl [CANERTINIB DIHYDROCHLORIDE]

>  <Tested System>
HEK-293T

>  <Result>
16%

$$$$
>  <Molecule>
CC[C@H](C)C(=O)O[C@H]1C[C@@H](C)C=C2C=C[C@H](C)[C@H](CC[C@@H]3C[C@@H](O)CC(=O)O3)[C@H]21

>  <Tested System>
HEK-293T

>  <Result>
16%

$$$$
>  <Molecule>
CN(C)CC#Cc1ccc(OCCCc2sc(N3CCc4cccc(C(=O)Nc5nc6ccccc6s5)c4C3)nc2C(=O)O)c(F)c1

>  <Tested System>
HEK-293T

>  <Result>
26%

$$$$
>  <Molecule>
CCN(CC)CCCCNc1ncc2cc(-c3cc(OC)cc(OC)c3)c(NC(=O)NC(C)(C)C)nc2n1

>  <Tested System>
HEK-293T

>  <Result>
71%

$$$$
>  <Molecule>
CN1CCN(c2ccc(OC(F)(F)F)c(Nc3ncc4c(n3)-c3c(c(C(N)=O)nn3CCO)CC4)c2)CC1

>  <Tested System>
HEK-293T

>  <Result>
81%

$$$$
>  <Molecule>
OC1(c2ccc(Cl)cc2)CCN(Cc2c[nH]c3ccccc23)CC1

>  <Tested System>
HEK-293T

>  <Result>
86%

$$$$
>  <Molecule>
O=C1NCN(c2ccccc2)C12CCN(CCCOc1ccc(F)cc1)CC2 [SPIRAMIDE]

>  <Tested System>
HEK-293T

>  <Result>
46%

$$$$
>  <Molecule>
Cc1csc2c(N[C@@H](C)CN3CCN(S(=O)(=O)c4ccc(Cl)c(Cl)c4)CC3)ncnc12

>  <Tested System>
HEK-293T

>  <Result>
68%

$$$$
>  <Molecule>
COc1cc2nccc(Oc3ccc(NC(=O)Nc4cc(C)on4)c(Cl)c3)c2cc1OC.O

>  <Tested System>
HEK-293T

>  <Result>
94%

$$$$
>  <Molecule>
COc1cc(-n2cnc3cc(-c4ccc(Cl)cc4)sc3c2=O)ccc1OCCN1CCCC1

>  <Tested System>
HEK-293T

>  <Result>
66%

$$$$

====

system: HEK-293T; test: Multiplex assay against HEK293T; format: toxicity, cell-based; conditions: human, 48 h, 10 µM, compound concentration 10 uM, replicate 2;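 also: share of the cells with healthy nuclei that show this phenotype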
Listed below: Population Tubulin-Different-Phenotype (%) values for each entry.
Quantity Measured: Population Tubulin-Different-Phenotype (%)

>  <Compound>
CN1CCN(c2ccc(OC(F)(F)F)c(Nc3ncc4c(n3)-c3c(c(C(N)=O)nn3CCO)CC4)c2)CC1 [ONVANSERTIB]

>  <Tested System>
HEK-293T

>  <Result>
84%

$$$$
>  <Compound>
CC[C@H](C)C(=O)O[C@H]1C[C@@H](C)C=C2C=C[C@H](C)[C@H](CC[C@@H]3C[C@@H](O)CC(=O)O3)[C@H]21 [LOVASTATIN]

>  <Tested System>
HEK-293T

>  <Result>
24%

$$$$
>  <Compound>
Cc1nc(-c2ccc(-c3ccc(C(=O)N4CCc5cc6c(cc54)C4(CCN(C)CC4)CO6)cc3)c(C)c2)no1 [SB-224289]

>  <Tested System>
HEK-293T

>  <Result>
57%

$$$$
>  <Compound>
NC(=O)Nc1cc(-c2cccc(F)c2)sc1C(=O)N[C@H]1CCCNC1 [AZD-7762]

>  <Tested System>
HEK-293T

>  <Result>
61%

$$$$
>  <Compound>
COc1ncc(-c2ccc3nccc(-c4ccnnc4)c3c2)cc1NS(=O)(=O)c1ccc(F)cc1F [OMIPALISIB]

>  <Tested System>
HEK-293T

>  <Result>
54%

$$$$
>  <Compound>
c1cn2cc(-c3ccc4cn[nH]c4c3)nc(Nc3ccc(N4CCOCC4)cc3)c2n1 [ENTOSPLETINIB]

>  <Tested System>
HEK-293T

>  <Result>
93%

$$$$
>  <Compound>
CN1CCN(CCOc2cc(OC3CCOCC3)c3c(Nc4c(Cl)ccc5c4OCO5)ncnc3c2)CC1 [SARACATINIB]

>  <Tested System>
HEK-293T

>  <Result>
71%

$$$$
>  <Compound>
C[C@@H](NCCCc1cccc(C(F)(F)F)c1)c1cccc2ccccc12.Cl [CINACALCET HYDROCHLORIDE]

>  <Tested System>
HEK-293T

>  <Result>
70%

$$$$

The values you see were collected from ChEMBL document CHEMBL4689842.
